Molecular target: Tumor necrosis factor receptor superfamily member 10B (Homo sapiens) (UniProt O14763)
Sequence (O14763 whole entry, looked up): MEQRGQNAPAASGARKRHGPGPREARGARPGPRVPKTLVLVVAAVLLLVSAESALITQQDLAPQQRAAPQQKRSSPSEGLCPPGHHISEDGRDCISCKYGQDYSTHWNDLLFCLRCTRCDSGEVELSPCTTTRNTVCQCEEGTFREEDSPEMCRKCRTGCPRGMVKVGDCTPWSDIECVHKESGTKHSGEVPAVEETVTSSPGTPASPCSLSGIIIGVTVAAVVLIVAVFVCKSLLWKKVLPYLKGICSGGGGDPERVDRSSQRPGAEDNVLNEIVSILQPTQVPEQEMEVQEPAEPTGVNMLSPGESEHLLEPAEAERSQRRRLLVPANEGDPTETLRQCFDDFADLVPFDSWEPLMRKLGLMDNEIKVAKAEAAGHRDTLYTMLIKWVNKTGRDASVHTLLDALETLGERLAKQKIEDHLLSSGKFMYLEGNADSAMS
Test: caspase-8 TRAIL sensitization, hit retest, confirmation, cell-based, NB7+caspase-8, with/without TRAIL, luminescence panel (AID 651596)
Conditions: NB7 neuroblastoma + caspase-8, TRAIL sensitization, luminescence viability, with TRAIL, mean of runs, at 10 µM, stronger effect = higher value
Criterion: activity strictly less than 70%. Met: 1. Not met: -1.

[
  {
    "compound": "O=C(Nc1nc2ccccc2[nH]1)c1ccccc1OC(F)F",
    "label class": -1
  },
  {
    "compound": "CCn1nc(C(=O)NCCc2ccc(S(N)(=O)=O)cc2)c2ccccc2c1=O",
    "label class": 1
  },
  {
    "compound": "CCc1ccc(-c2cc(C(=O)N/N=C/c3c[nH]c4ccccc34)[nH]n2)cc1",
    "label class": 1
  },
  {
    "compound": "Fc1ccc(-c2nnc(-c3ccc(Cl)cc3Cl)o2)cc1",
    "label class": -1
  },
  {
    "compound": "NC(C(=O)O)C1ON=C(Cl)C1O (stereo unspecified)",
    "label class": -1
  }
]

Given the entry CC(/C=N/NC(=O)c1nn(C)c(C)c1Br)=C\c1ccccc1 , would its reported activity be below 70%?
-1

I'd appreciate it if you could check whether Cc1nc2c(-c3ccc(F)cc3)cnn2c(N)c1-c1ccc(F)cc1 has activity smaller than 70%.
1

Here's an entry: Cc1nn(-c2ccccc2)c(Cl)c1/C=N/NC(=O)c1ccn[nH]1 . Is its activity below 70%?
-1

Does the reported activity of Cc1ccc(NC(=O)c2ccc3c(c2)OCCO3)nc1 stay below 70%?
-1
